The measured values listed here are drawn from patent US20210395344A1.

# System Under Test: T1, Acro COVID S1 (S1N-C82E8) (SARS-CoV-2, UniProt P0DTC2 16-685)
# T1 construct: domain: S1
# Test Name: phage ELISA
Measurement Type: ELISA fold over background (fold over background)

>  <Binder>
1-4 (antibody, V domains shown, also called variant 1-4) VH: EVQLLESGGGLVQPGGSLRLSCAASGFTFSSQAMSWVRQAPGKGLEWVSAISGSGGGTYYADSVKGRFTISRDNSKNTLYLQMNSLRAEDTAVYYCAKDRRFGEFDPWGQGTLVTVSS VL: QSALTQPASVSGSPGQSITISCTGTSSDVGTYNLVSWYQQHPGKAPKLMIYEGSQRPSGVSNRFSGSKSGNTASLTISGLQAEDEADYYCCSYAGSSSFVVFGGGTKLTVL

>  <Measured>
1

$$$$
>  <Binder>
1-31 (antibody, V domains shown, also called variant 1-31) VH: EVQLLESGGGLVQPGGSLRLSCAASGFTFSSYAMNWVRQAPGKGLEWVSAISGSGGSTFYADSVKGRFTISRDNSKNTLYLQMNSLRAEDTAVYYCTRPPYGDYGDYWGQGTLVTVSS VL: QSALTQPASVSGSPGQSITISCTGTSSDVGKYNLVSWYQQHPGKAPKLMIYEGSQRPSGVSNRFSGSKSGNTASLTISGLQAEDEADYYCCSYAGSRTPVVFGGGTKLTVL

>  <Measured>
30.4

$$$$
>  <Binder>
1-24 (antibody, V domains shown, also called variant 1-24) VH: EVQLLESGGGLVQPGGSLRLSCAASGFTFSSYAMNWVRQAPGKGLEWVSIISGSGGSTYYADSVKGRFTISRDNSKNTLYLQMNSLRAEDTAVYYCAREGYRDYLWYFDLWGQGTLVTVSS VL: QSALTQPASVSGSPGQSITISCTGTSSDVGYYNLVSWYQQHPGKAPKLMIYEGNKRPSGVSNRFSGSKSGNTASLTISGLQAEDEADYYCCSYAGGSVVFGGGTKLTVL

>  <Measured>
12.9

$$$$
>  <Binder>
1-29 (antibody, V domains shown, also called variant 1-29) VH: EVQLLESGGGLVQPGGSLRLSCAASGFTFSSYAMYWVRQAPGKGLEWVSAISGSAGSTYYADSVKGRFTISRDNSKNTLYLQMNSLRAEDTAVYYCARDTNDFWSGYSIFDPWGQGTLVTVSS VL: QSALTQPASVSGSPGQSITISCTGTSSDIGSYNLVSWYQQHPGKAPKLMIYEGTKRPSGVSNRFSGSKSGNTASLTISGLQAEDEADYYCCSYAGSRTYVFGGGTKLTVL

>  <Measured>
1.1

$$$$
